# measurementTarget: Caspase-1 (Homo sapiens, UniProt P29466)
# Sequence (P29466 120-297 limits assumed): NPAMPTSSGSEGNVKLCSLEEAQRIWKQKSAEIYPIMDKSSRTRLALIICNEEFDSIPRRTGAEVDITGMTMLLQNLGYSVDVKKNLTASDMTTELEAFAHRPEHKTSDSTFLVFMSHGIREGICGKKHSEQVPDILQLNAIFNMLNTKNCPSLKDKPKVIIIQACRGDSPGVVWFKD
# Sequence (P29466 317-404 limits assumed): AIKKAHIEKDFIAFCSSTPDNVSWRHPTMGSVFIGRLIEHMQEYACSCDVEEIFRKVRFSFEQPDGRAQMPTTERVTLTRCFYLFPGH
# protocol: Inhibition of Caspase-1 (unknown origin)
pIC50: −log10 of the molar value.

| compound | pIC50 |
| --- | --- |
| CCC(C)(C)c1ccc(Oc2ccccc2S(=O)(=O)N[C@H](C=O)CC(=O)O)cc1C | 6.00 |
| O=C[C@H](CC(=O)O)NS(=O)(=O)c1ccccc1-c1cccc2ccccc12 | 4.94 |
| CC(C)(NC(=O)CNC(=O)c1ccc2ccccc2c1)C(=O)N[C@H](CN=[N+]=[N-])CC(=O)O | 8.10 |
| CC(C)C(NC(=O)OCc1ccccc1)C(=O)N[C@@H](C)C(=O)NC(CC(=O)O)C(=O)CNS(=O)(=O)CCc1ccccc1 (stereo not given in full) | 6.15 |
| CCC(C)(C)c1ccc(Oc2ccccc2S(=O)(=O)N[C@H](C=O)CC(=O)O)cc1 | 5.66 |
